- System: Trichosporon inkin
- test protocol: Antimicrobial activity against Trichosporon inkin by broth microdilution method
- Type: functional
*1 amine or outer side, *2 acyl side, *3 side chain or, on linkers, in order; H or OH if unused. Where a SMILES comes first, the peptide text is derived from it. Bridges are numbered along the chain shown (N, C = ends). [ ]: non-standard residue; d: D form. The star is where a group is joined. hTyr(3S-OH,4S-OH,3'-OSO3H) = N[C@H](C(=O)O)[C@H](O)[C@@H](O)c1ccc(O)c(OS(=O)(=O)O)c1; pTerphenylCO(4''-OnC5H11) = CCCCCOc1ccc(-c2ccc(-c3ccc(C(=O)*)cc3)cc2)cc1; Orn(4R-OH,5R-OH) = O=C([C@H](C[C@@H](O)[C@@H](O)N[*:3])N[*:1])[*:2]; hTyr(3S-OH,4S-OH) = N[C@H](C(=O)O)[C@H](O)[C@@H](O)c1ccc(O)cc1; Pro(3S-OH,4S-Me) = C[C@H]1CN[C@H](C(=O)O)[C@H]1O; X1 = CCCCCOc1ccc(-c2cc(-c3ccc(C(=O)*)cc3)no2)cc1; Gln(3R-OH) = NC(=O)C[C@@H](O)[C@H](N)C(=O)O; Hyp = O=C(O)[C@@H]1C[C@@H](O)CN1

compound	MIC50
CCC(C)n1ncn(-c2ccc(N3CCN(c4ccc(OCC5COC(Cn6cncn6)(c6ccc(Cl)cc6Cl)O5)cc4)CC3)cc2)c1=O (centres undefined)	0.12 µg/mL
CCCCCOc1ccc(-c2ccc(-c3ccc(C(=O)N[C@H]4C[C@@H](O)[C@@H](O)NC(=O)[C@@H]5[C@@H](O)[C@@H](C)CN5C(=O)[C@H]([C@@H](C)O)NC(=O)[C@H]([C@H](O)[C@@H](O)c5ccc(O)cc5)NC(=O)[C@@H]5C[C@@H](O)CN5C(=O)[C@H]([C@@H](C)O)NC4=O)cc3)cc2)cc1 [ANIDULAFUNGIN] ({pTerphenylCO(4''-OnC5H11)}-[Orn(4R-OH,5R-OH)]T[Hyp][hTyr(3S-OH,4S-OH)]T[Pro(3S-OH,4S-Me)]; lactam 1-C)	> 16 µg/mL
C[C@@H](c1ncncc1F)[C@](O)(Cn1cncn1)c1ccc(F)cc1F	0.06 µg/mL
CC[C@@H]([C@H](C)O)n1ncn(-c2ccc(N3CCN(c4ccc(OC[C@@H]5CO[C@@](Cn6cncn6)(c6ccc(F)cc6F)C5)cc4)CC3)cc2)c1=O	0.06 µg/mL
Nc1nc(=O)[nH]cc1F	64 µg/mL
CCCCCOc1ccc(-c2cc(-c3ccc(C(=O)N[C@H]4C[C@@H](O)[C@@H](O)NC(=O)[C@@H]5[C@@H](O)[C@@H](C)CN5C(=O)[C@H]([C@H](O)CC(N)=O)NC(=O)[C@H]([C@H](O)[C@@H](O)c5ccc(O)c(OS(=O)(=O)O)c5)NC(=O)[C@@H]5C[C@@H](O)CN5C(=O)[C@H]([C@@H](C)O)NC4=O)cc3)no2)cc1 [MICAFUNGIN] (X1-[Orn(4R-OH,5R-OH)]T[Hyp][hTyr(3S-OH,4S-OH,3'-OSO3H)][Gln(3R-OH)][Pro(3S-OH,4S-Me)]; lactam 1-C)	> 16 µg/mL
CC[C@H](C)C[C@H](C)CCCCCCCCC(=O)N[C@H]1C[C@@H](O)[C@@H](NCCN)NC(=O)[C@@H]2[C@@H](O)CCN2C(=O)[C@H]([C@H](O)CCN)NC(=O)[C@H]([C@H](O)[C@@H](O)c2ccc(O)cc2)NC(=O)[C@@H]2C[C@@H](O)CN2C(=O)[C@H]([C@@H](C)O)NC1=O	> 16 µg/mL
C[C@@H]1[C@H](O)[C@@H](C)/C=C/C=C/C=C/C=C/C=C/C=C/C=C/[C@H](O[C@@H]2O[C@H](C)[C@@H](O)[C@H](N)[C@@H]2O)C[C@@H]2O[C@](O)(C[C@@H](O)C[C@@H](O)[C@H](O)CC[C@@H](O)C[C@@H](O)CC(=O)O[C@H]1C)C[C@H](O)[C@H]2C(=O)O	0.12 µg/mL
OC(Cn1cncn1)(Cn1cncn1)c1ccc(F)cc1F	4 µg/mL

====

Entries and their MIC50 values follow.
- Tested on: Trichosporon ovoides
- test protocol: Antimicrobial activity against Trichosporon ovoides by broth microdilution method
- Format: functional
*1 amine or outer side, *2 acyl side, *3 side chain or, on linkers, in order; H or OH if unused. Where a SMILES comes first, the peptide text is derived from it. Bridges are numbered along the chain shown (N, C = ends). [ ]: non-standard residue; d: D form. The star is where a group is joined. pTerphenylCO(4''-OnC5H11) = CCCCCOc1ccc(-c2ccc(-c3ccc(C(=O)*)cc3)cc2)cc1; Orn(4R-OH,5R-OH) = O=C([C@H](C[C@@H](O)[C@@H](O)N[*:3])N[*:1])[*:2]; hTyr(3S-OH,4S-OH) = N[C@H](C(=O)O)[C@H](O)[C@@H](O)c1ccc(O)cc1; Pro(3S-OH,4S-Me) = C[C@H]1CN[C@H](C(=O)O)[C@H]1O; Hyp = O=C(O)[C@@H]1C[C@@H](O)CN1
measured metric: MIC50 (µg/mL)

molecule	measured metric	measurement qualifier	observed
CC[C@@H]([C@H](C)O)n1ncn(-c2ccc(N3CCN(c4ccc(OC[C@@H]5CO[C@@](Cn6cncn6)(c6ccc(F)cc6F)C5)cc4)CC3)cc2)c1=O	MIC50	=	0.25
OC(Cn1cncn1)(Cn1cncn1)c1ccc(F)cc1F	MIC50	=	16
CCC(C)n1ncn(-c2ccc(N3CCN(c4ccc(OCC5COC(Cn6cncn6)(c6ccc(Cl)cc6Cl)O5)cc4)CC3)cc2)c1=O (centres undefined)	MIC50	=	0.5
CCCCCOc1ccc(-c2ccc(-c3ccc(C(=O)N[C@H]4C[C@@H](O)[C@@H](O)NC(=O)[C@@H]5[C@@H](O)[C@@H](C)CN5C(=O)[C@H]([C@@H](C)O)NC(=O)[C@H]([C@H](O)[C@@H](O)c5ccc(O)cc5)NC(=O)[C@@H]5C[C@@H](O)CN5C(=O)[C@H]([C@@H](C)O)NC4=O)cc3)cc2)cc1 [ANIDULAFUNGIN] ({pTerphenylCO(4''-OnC5H11)}-[Orn(4R-OH,5R-OH)]T[Hyp][hTyr(3S-OH,4S-OH)]T[Pro(3S-OH,4S-Me)]; lactam 1-C)	MIC50	>	16

====

- Tested on: Cladosporium
- test protocol: Antimicrobial activity against Cladosporium spp. by broth microdilution method
- Type: functional
*1 amine or outer side, *2 acyl side, *3 side chain or, on linkers, in order; H or OH if unused. Where a SMILES comes first, the peptide text is derived from it. Bridges are numbered along the chain shown (N, C = ends). [ ]: non-standard residue; d: D form. The star is where a group is joined. hTyr(3S-OH,4S-OH,3'-OSO3H) = N[C@H](C(=O)O)[C@H](O)[C@@H](O)c1ccc(O)c(OS(=O)(=O)O)c1; pTerphenylCO(4''-OnC5H11) = CCCCCOc1ccc(-c2ccc(-c3ccc(C(=O)*)cc3)cc2)cc1; Orn(4R-OH,5R-OH) = O=C([C@H](C[C@@H](O)[C@@H](O)N[*:3])N[*:1])[*:2]; hTyr(3S-OH,4S-OH) = N[C@H](C(=O)O)[C@H](O)[C@@H](O)c1ccc(O)cc1; Pro(3S-OH,4S-Me) = C[C@H]1CN[C@H](C(=O)O)[C@H]1O; X1 = CCCCCOc1ccc(-c2cc(-c3ccc(C(=O)*)cc3)no2)cc1; Gln(3R-OH) = NC(=O)C[C@@H](O)[C@H](N)C(=O)O; Hyp = O=C(O)[C@@H]1C[C@@H](O)CN1

compound	experimental system	MIC50 / µg/mL
CCCCCOc1ccc(-c2ccc(-c3ccc(C(=O)N[C@H]4C[C@@H](O)[C@@H](O)NC(=O)[C@@H]5[C@@H](O)[C@@H](C)CN5C(=O)[C@H]([C@@H](C)O)NC(=O)[C@H]([C@H](O)[C@@H](O)c5ccc(O)cc5)NC(=O)[C@@H]5C[C@@H](O)CN5C(=O)[C@H]([C@@H](C)O)NC4=O)cc3)cc2)cc1 [ANIDULAFUNGIN] ({pTerphenylCO(4''-OnC5H11)}-[Orn(4R-OH,5R-OH)]T[Hyp][hTyr(3S-OH,4S-OH)]T[Pro(3S-OH,4S-Me)]; lactam 1-C)	Cladosporium	0.03
CC[C@@H]([C@H](C)O)n1ncn(-c2ccc(N3CCN(c4ccc(OC[C@@H]5CO[C@@](Cn6cncn6)(c6ccc(F)cc6F)C5)cc4)CC3)cc2)c1=O	Cladosporium	0.06
C[C@@H](c1ncncc1F)[C@](O)(Cn1cncn1)c1ccc(F)cc1F	Cladosporium	0.06
CCCCCOc1ccc(-c2cc(-c3ccc(C(=O)N[C@H]4C[C@@H](O)[C@@H](O)NC(=O)[C@@H]5[C@@H](O)[C@@H](C)CN5C(=O)[C@H]([C@H](O)CC(N)=O)NC(=O)[C@H]([C@H](O)[C@@H](O)c5ccc(O)c(OS(=O)(=O)O)c5)NC(=O)[C@@H]5C[C@@H](O)CN5C(=O)[C@H]([C@@H](C)O)NC4=O)cc3)no2)cc1 [MICAFUNGIN] (X1-[Orn(4R-OH,5R-OH)]T[Hyp][hTyr(3S-OH,4S-OH,3'-OSO3H)][Gln(3R-OH)][Pro(3S-OH,4S-Me)]; lactam 1-C)	Cladosporium	0.03
CCC(C)n1ncn(-c2ccc(N3CCN(c4ccc(OCC5COC(Cn6cncn6)(c6ccc(Cl)cc6Cl)O5)cc4)CC3)cc2)c1=O (configuration not stated)	Cladosporium	0.12
CC[C@H](C)C[C@H](C)CCCCCCCCC(=O)N[C@H]1C[C@@H](O)[C@@H](NCCN)NC(=O)[C@@H]2[C@@H](O)CCN2C(=O)[C@H]([C@H](O)CCN)NC(=O)[C@H]([C@H](O)[C@@H](O)c2ccc(O)cc2)NC(=O)[C@@H]2C[C@@H](O)CN2C(=O)[C@H]([C@@H](C)O)NC1=O	Cladosporium	0.25
C[C@@H]1[C@H](O)[C@@H](C)/C=C/C=C/C=C/C=C/C=C/C=C/C=C/[C@H](O[C@@H]2O[C@H](C)[C@@H](O)[C@H](N)[C@@H]2O)C[C@@H]2O[C@](O)(C[C@@H](O)C[C@@H](O)[C@H](O)CC[C@@H](O)C[C@@H](O)CC(=O)O[C@H]1C)C[C@H](O)[C@H]2C(=O)O	Cladosporium	0.25
